In what follows, each item is paired with its pIC50 for human PAI-1 (Homo sapiens).
pIC50: −log10 of the molar value.
measuredMetric: pIC50

// returns reported pIC50 for input CCCCc1oc2ccccc2c1/C=N/OCc1ccc(C(=O)O)c(Br)c1 [Compound 5]
4.53

P. CCCCc1oc2ccccc2c1/C=N/OCCCOc1ccc(C(=O)O)c(NC(=O)c2ccc(C(C)(C)C)cc2)c1 [Compound 1]
Q. CCCCc1oc2ccccc2c1/C=N/OCCCOc1ccc(C(=O)O)cc1-c1ccc(C(F)(F)F)cc1 [Compound 6]
Could you please tell me which of these two has the higher pIC50: P or Q ? # answer = label of selected item
Q
